tested on: TK-10 renal; assay: NCI tumour cell line growth inhibition, 48 h
TGI listing for selected compounds.

compound=O=C(c1ccc(Cl)c(Cl)c1)N(C(=O)N1CCN(c2ccccc2)CC1)S(=O)(=O)c1ccccc1 test_result="> 100 µM"

Documented TGI of N#CSCC1CC(O)(c2ccccc2)CC(c2ccc(Cl)cc2)O1 (stereo not drawn) : 4.33 µM

Documented TGI of O=C(Nc1cc(C(F)(F)F)cc(C(F)(F)F)c1)Nc1ccc(OCc2nnc(-c3ccc(Cl)cc3)o2)c(F)c1 : 33.9 µM

Documented TGI of Cc1ccc2nc(-c3ccc(-c4nc5ccc(C)cc5o4)c(O)c3)oc2c1 : > 100 µM

Documented TGI of COC1C(O)CC(OC2CC(OC3CC(O[C@@H]4C(=O)c5c(cc6cc(OC7CC(OC8CC(O)C(O)C(C)O8)C(O)C(C)O7)c(C)c(O)c6c5O)C[C@H]4[C@H](OC)C(=O)[C@@H](O)[C@@H](C)O)OC(C)C3O)OC(C)C2O)OC1C (stereo partly drawn) : > 39.8 µM

Documented TGI of CCN(CC)c1ccc2cc(-c3csc(C)n3)c(=O)oc2c1 : > 100 µM

Documented TGI of O=[N+]([O-])c1cc2ccc1OCc1cccc(n1)COc1ccc(cc1[N+](=O)[O-])C=NCCCCCCCCN=C2 : > 100 µM

Documented TGI of COC(=O)C1=C(C(=O)OC)C(OO)(c2ccccc2)OC1=O (stereo not drawn) : > 100 µM
